Tested on: HEK-293T
Test name: Incucyte cell viability with HEK293T; further: unitless GR value; below 1 slowed growth and below 0 cell loss
Assay type: toxicity, cell-based
Stated conditions: human, 24 h, 10 µM, compound concentration 10 uM, replicate number 2
Param label: returns Condition met when Growth Rate < 0.7, returns Condition not met otherwise, including exact equality.

[in] # strict comparison: is reported Growth Rate < 0.7? input = CN(C)C(=O)c1cc2cnc(Nc3ccc(N4CCN(CCCCNC(=O)COc5cccc6c5C(=O)N(C5CCC(=O)NC5=O)C6=O)CC4)cn3)nc2n1C1CCCC1 (centres undefined)
[out] Condition not met

[in] # strict comparison: is reported Growth Rate < 0.7? input = "COCCOCn1c(S(C)(=O)=O)nc2c1c(=O)n(C)c(=O)n2C"
[out] Condition not met

[in] # strict comparison: is reported Growth Rate < 0.7? input = "COc1cc(N(C)c2ccnc3ccc(C(F)(F)F)cc23)cc(OC)c1OC"
[out] Condition met

[in] # strict comparison: is reported Growth Rate < 0.7? input = "CCCOc1cnc(CN/C=C2\C(=O)NC(=O)c3ccc(I)cc32)cc1O"
[out] Condition met

[in] # strict comparison: is reported Growth Rate < 0.7? input = "Cc1ccc(S(=O)(=O)O)cc1.Cn1cc(-c2ccc(F)c(C(F)(F)F)c2)nc1C1CCN(c2ncnc3[nH]ncc23)CC1"
[out] Condition not met

[in] # strict comparison: is reported Growth Rate < 0.7? input = "CNc1nc(-c2cc(C(=O)N3CCN(Cc4ccc(Cl)cc4)CC3)c(Cl)cn2)cs1"
[out] Condition met
